# Protocol Details: HPLC stability study in phosphate buffers
# Assay type: physicochemical
# Stated Conditions: phosphate buffer; pH 7.4; study over 264 h
Parameter: remaining at 264 h, 14.6 µg/mL (%)
Dear colleague, please return just the value in %, with no unit written.

                                   compound                       parameter  unit_symbol  observed
0  C=CCC1C(=O)N(c2cc(OC)c(OC)c(OC)c2)C1c1ccc(OC)c(O)c1 (stereo not shown) [10p]  remaining at 264 h, 14.6 µg/mL            %        99

Form: compound = C=CCC1C(=O)N(c2cc(OC)c(OC)c(OC)c2)C1c1ccc(OC)c([N+](=O)[O-])c1 (stereo not shown) [10q] ; remaining at 264 h, 14.6 µg/mL = 25

Value of remaining at 264 h, 14.6 µg/mL reported for the compound C=CCC1C(=O)N(c2cc(OC)c(OC)c(OC)c2)C1c1ccc(OC)cc1 (stereo not shown) [10h] is 41

// field: remaining at 264 h, 14.6 µg/mL; key: C=CCC1C(=O)N(c2cc(OC)c(OC)c(OC)c2)C1c1ccc(OC)c(N)c1 (stereo not shown) [10r] ; value = 99

---

# Test system: MDA-MB-435
# Protocol Details: NCI-60 SRB screen, melanoma
# Format: cell-based, human
# Stated Conditions: Homo sapiens; MDA-MB-435; five dose 0.01–100 µM, 48 h; read-out: GI50
With a cut-off of 30 nM, any GI50 strictly below it is called label 1; any GI50 meeting it or above is called label 0.

# example entries with known answers
>>> print(df.to_string())
                                   molecule      cat
0  C=C(C)C1C(=O)N(c2cc(OC)c(OC)c(OC)c2)C1c1ccc(OC)cc1 (stereo not drawn)  label 0
1  C=C(C)C1C(=O)N(c2cc(OC)c(OC)c(OC)c2)C1c1ccc(OC)c(OP(=O)(O)O)c1 (stereo not drawn) [15a]  label 1
2  C=C(C)C1C(=O)N(c2cc(OC)c(OC)c(OC)c2)C1c1ccc(OC)c(O)c1 (stereo not drawn)  label 1
3  C=C(C)C1C(=O)N(c2cc(OC)c(OC)c(OC)c2)C1c1ccc(OC)c(N)c1 (stereo not drawn)  label 1
4  COc1ccc(C2C(C(C)C)C(=O)N2c2cc(OC)c(OC)c(OC)c2)cc1OP(=O)(O)O (stereo not drawn) [15b]  label 0

Here is the next item to consider.
Is 30 nM strictly greater than the molecule's reported GI50? molecule: C=CCC1C(=O)N(c2cc(OC)c(OC)c(OC)c2)C1c1ccc(OC)c(O)c1 (stereo not drawn) [10p]
label 1

---

# Protocol Details: HPLC stability study in phosphate buffers
# Assay type: physicochemical
# Stated Conditions: phosphate buffer, pH 7.4; read-out: half-life (t½) (converted)
Measured half-life at 14.6 µg/mL accompanies every entry in the list below.

>>> df
                                   compound  observed
0  C=C(C)C1C(=O)N(c2cc(OC)c(OC)c(OC)c2)C1c1ccc(OC)c(OP(=O)(O)O)c1 (centres unmarked) [15a]    > 24 h

For record C=C(C)C1C(=O)N(c2cc(OC)c(OC)c(OC)c2)C1c1ccc(OC)c(O)c1 (centres unmarked) [9q] the listed half-life at 14.6 µg/mL is 13 h
